All values here come from patent US20070021434A1.

Listed here: compounds with reported pIC50 for HCV RdRp (NS5B) (UniProt P26663).
pIC50: −log10 of the molar value.

compound | reported
Cc1ccc(NC(=O)C(CCCCN)NC(=O)NCCc2ccccc2)cc1 (centres unmarked) | < 4.30
Cc1ccc(NC(=O)C(CCCCN)NC(=O)Nc2ccc(C(=O)c3ccccc3)cc2)cc1 (centres unmarked) | < 4.30
Cc1cc2cc(NC(=O)[C@H](CCCNC(=O)CN)NC(=O)Nc3ccc(OCc4ccccc4)cc3)ccc2[nH]1 | 4.30 to 5.00
Cc1ccc(NC(=O)C(CCCCN)NC(=O)Nc2nnc(COc3ccc(C)cc3)s2)cc1 (centres unmarked) | 4.30 to 5.00
Cc1cc2cc(NC(=O)[C@H](CCNC(=O)CN)NC(=O)OCC3c4ccccc4-c4ccccc43)ccc2[nH]1 | > 5.00

Form entry - test system: HCV RdRp (NS5B) (UniProt P26663); read-out: pIC50; compound: CC(=O)NCCCCC(NC(=O)OCC1c2ccccc2-c2ccccc21)C(=O)Nc1ccc(C)cc1 (centres unmarked)
Sequence (P26663 whole entry, looked up): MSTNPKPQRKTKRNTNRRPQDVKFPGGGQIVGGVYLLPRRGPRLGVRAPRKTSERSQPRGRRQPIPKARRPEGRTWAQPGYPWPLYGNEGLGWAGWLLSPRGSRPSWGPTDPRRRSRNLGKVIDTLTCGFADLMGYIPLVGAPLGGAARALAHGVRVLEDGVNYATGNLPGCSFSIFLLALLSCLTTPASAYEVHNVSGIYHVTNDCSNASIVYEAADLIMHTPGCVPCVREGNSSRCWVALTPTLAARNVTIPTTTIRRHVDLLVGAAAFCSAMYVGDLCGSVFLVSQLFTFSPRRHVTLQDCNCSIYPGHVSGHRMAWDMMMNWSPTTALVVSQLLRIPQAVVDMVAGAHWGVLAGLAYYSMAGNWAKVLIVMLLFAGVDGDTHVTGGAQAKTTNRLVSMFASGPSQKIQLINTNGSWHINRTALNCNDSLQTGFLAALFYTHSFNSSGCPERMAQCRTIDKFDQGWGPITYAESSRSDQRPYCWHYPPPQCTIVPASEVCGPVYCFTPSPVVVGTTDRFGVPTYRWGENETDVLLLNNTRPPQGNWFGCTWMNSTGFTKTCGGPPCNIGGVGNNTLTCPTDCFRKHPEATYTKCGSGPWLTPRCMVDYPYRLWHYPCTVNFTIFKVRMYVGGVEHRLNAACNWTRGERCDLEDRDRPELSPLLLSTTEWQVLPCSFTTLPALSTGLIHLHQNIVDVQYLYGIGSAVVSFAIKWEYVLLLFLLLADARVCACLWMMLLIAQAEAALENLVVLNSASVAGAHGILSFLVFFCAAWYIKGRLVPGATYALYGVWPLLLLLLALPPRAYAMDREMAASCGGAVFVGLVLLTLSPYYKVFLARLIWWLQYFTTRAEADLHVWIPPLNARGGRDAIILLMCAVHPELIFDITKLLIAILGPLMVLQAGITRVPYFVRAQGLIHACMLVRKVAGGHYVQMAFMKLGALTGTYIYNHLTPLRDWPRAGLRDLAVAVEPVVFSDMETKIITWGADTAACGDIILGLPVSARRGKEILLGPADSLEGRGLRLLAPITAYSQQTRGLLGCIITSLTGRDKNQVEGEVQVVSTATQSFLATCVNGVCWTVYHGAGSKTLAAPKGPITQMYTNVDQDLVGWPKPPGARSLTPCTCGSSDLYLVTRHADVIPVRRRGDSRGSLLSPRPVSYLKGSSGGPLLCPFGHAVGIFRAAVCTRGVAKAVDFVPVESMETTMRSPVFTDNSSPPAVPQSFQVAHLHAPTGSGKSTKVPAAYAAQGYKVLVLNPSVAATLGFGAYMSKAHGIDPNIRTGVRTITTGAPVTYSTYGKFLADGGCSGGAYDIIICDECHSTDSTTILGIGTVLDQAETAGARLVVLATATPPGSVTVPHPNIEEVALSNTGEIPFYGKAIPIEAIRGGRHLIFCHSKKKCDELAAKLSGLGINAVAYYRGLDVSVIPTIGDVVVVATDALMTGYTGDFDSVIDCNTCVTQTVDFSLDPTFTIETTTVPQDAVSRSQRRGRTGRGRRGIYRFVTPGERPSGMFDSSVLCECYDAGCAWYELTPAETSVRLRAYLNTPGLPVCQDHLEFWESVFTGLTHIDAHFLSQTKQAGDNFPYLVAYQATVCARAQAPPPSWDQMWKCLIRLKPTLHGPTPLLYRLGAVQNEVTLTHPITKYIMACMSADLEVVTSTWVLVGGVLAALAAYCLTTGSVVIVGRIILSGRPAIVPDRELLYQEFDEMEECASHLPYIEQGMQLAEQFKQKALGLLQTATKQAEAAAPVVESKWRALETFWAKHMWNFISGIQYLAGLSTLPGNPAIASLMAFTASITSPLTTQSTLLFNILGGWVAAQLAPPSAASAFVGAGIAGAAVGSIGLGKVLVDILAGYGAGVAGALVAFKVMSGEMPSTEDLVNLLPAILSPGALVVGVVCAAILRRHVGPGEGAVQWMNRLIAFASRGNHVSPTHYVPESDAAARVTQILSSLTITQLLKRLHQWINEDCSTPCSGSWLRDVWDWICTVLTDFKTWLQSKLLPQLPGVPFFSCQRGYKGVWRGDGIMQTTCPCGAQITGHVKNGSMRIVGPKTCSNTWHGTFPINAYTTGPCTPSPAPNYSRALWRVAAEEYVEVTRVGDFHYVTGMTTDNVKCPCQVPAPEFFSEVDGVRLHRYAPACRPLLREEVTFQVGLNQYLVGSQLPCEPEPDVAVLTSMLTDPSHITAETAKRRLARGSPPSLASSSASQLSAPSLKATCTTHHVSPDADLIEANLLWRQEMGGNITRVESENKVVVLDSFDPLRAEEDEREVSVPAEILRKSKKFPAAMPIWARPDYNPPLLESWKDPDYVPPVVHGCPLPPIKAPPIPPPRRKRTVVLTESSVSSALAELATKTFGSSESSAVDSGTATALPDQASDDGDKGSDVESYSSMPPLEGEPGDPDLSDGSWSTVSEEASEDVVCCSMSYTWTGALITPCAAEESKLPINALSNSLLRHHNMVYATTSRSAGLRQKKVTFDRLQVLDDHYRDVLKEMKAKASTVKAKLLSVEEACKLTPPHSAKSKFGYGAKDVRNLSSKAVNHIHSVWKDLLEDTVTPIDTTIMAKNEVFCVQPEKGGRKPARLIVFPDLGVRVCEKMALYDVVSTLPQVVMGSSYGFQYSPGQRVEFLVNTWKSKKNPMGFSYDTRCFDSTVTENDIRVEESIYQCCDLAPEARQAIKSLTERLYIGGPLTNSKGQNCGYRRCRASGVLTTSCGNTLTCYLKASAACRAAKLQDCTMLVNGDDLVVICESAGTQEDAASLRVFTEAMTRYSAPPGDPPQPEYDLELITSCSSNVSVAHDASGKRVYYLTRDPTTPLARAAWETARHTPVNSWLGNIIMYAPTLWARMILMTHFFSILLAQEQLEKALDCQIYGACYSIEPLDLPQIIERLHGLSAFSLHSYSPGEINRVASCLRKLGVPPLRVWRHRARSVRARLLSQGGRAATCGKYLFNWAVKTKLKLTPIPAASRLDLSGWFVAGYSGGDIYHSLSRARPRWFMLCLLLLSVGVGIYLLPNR
< 4.30

Form: Entry = Cc1ccc(NC(=O)C(CCCCN)NC(=O)CNCCc2c[nH]c3ccccc23)cc1 (centres unmarked) | System = HCV RdRp (NS5B) (UniProt P26663) | pIC50 = ____
< 4.30

State its pIC50 on HCV RdRp (NS5B) (UniProt P26663): Cc1ccc(NC(=O)C2CCCCN2C(=O)OCC2c3ccccc3-c3ccccc32)cc1 (centres unmarked) [Compound 122]
< 4.30
